// values below are reported melting temperature
# Tested on: HeLa Kyoto
# Measurement Protocol: melting temperature (median over replicates), in situ; higher = more thermally stable
# Details: cell cycle stage: mitosis
Note: unit °C is implicit; provide only the numeric part.

Biopolymer Sequence | melting temperature, °C
MATKGGTVKAASGFNAMEDAQTLRKAMKGLGTDEDAIISVLAYRNTAQRQEIRTAYKSTIGRDLIDDLKSELSGNFEQVIVGMMTPTVLYDVQELRRAMKGAGTDEGCLIEILASRTPEEIRRISQTYQQQYGRSLEDDIRSDTSFMFQRVLVSLSAGGRDEGNYLDDALVRQDAQDLYEAGEKKWGTDEVKFLTVLCSRNRNHLLHVFDEYKRISQKDIEQSIKSETSGSFEDALLAIVKCMRNKSAYFAEKLYKSMKGLGTDDNTLIRVMVSRAEIDMLDIRAHFKRLYGKSLYSFIKGDTSGDYRKVLLVLCGGDD [ANXA4] | 50.2

Then this sequence:
QUERY: What measured melting temperature goes with MSDEREVAEAATGEDASSPPPKTEAASDPQHPAASEGAAAAAASPPLLRCLVLTGFGGYDKVKLQSRPAAPPAPGPGQLTLRLRACGLNFADLMARQGLYDRLPPLPVTPGMEGAGVVIAVGEGVSDRKAGDRVMVLNRSGMWQEEVTVPSVQTFLIPEAMTFEEAAALLVNYITAYMVLFDFGNLQPGHSVLVHMAAGGVGMAAVQLCRTVENVTVFGTASASKHEALKENGVTHPIDYHTTDYVDEIKKISPKGVDIVMDPLGGSDTAKGYNLLKPMGKVVTYGMANLLTGPKRNLMALARTWWNQFSVTALQLLQANRAVCGFHLGYLDGEVELVSGVVARLLALYNQGHIKPHIDSVWPFEKVADAMKQMQEKKNVGKVLLVPGPEKEN [VAT1] ?
RESULT: 55.3

###

Attribute: melting temperature
# System: HeLa Kyoto
# Measurement Protocol: melting temperature (median over replicates), in situ; higher = more thermally stable
# Details: cell cycle stage: G1/S
Provide only the numeric value, understood in °C.

Use these answered entries as a reference point.
Substance | Unit Annotation | melting temperature
MEMKKKINLELRNRSPEEVTELVLDNCLCVNGEIEGLNDTFKELEFLSMANVELSSLARLPSLNKLRKLELSDNIISGGLEVLAEKCPNLTYLNLSGNKIKDLSTVEALQNLKNLKSLDLFNCEITNLEDYRESIFELLQQITYLDGFDQEDNEAPDSEEEDDEDGDEDDEEEEENEAGPPEGYEEEEEEEEEEDEDEDEDEDEAGSELGEGEEEVGLSYLMKEEIQDEEDDDDYVEEGEEEEEEEEGGLRGEKRKRDAEDDGEEEDD [ANP32E] | °C | 46.5
MAATLGPLGSWQQWRRCLSARDGSRMLLLLLLLGSGQGPQQVGAGQTFEYLKREHSLSKPYQGVGTGSSSLWNLMGNAMVMTQYIRLTPDMQSKQGALWNRVPCFLRDWELQVHFKIHGQGKKNLHGDGLAIWYTKDRMQPGPVFGNMDKFVGLGVFVDTYPNEEKQQERVFPYISAMVNNGSLSYDHERDGRPTELGGCTAIVRNLHYDTFLVIRYVKRHLTIMMDIDGKHEWRDCIEVPGVRLPRGYYFGTSSITGDLSDNHDVISLKLFELTVERTPEEEKLHRDVFLPSVDNMKLPEMTAPLPPLSGLALFLIVFFSLVFSVFAIVIGIILYNKWQEQSRKRFY [LMAN2L] | °C | 53.7
MGSQALPPGPMQTLIFFDMEATGLPFSQPKVTELCLLAVHRCALESPPTSQGPPPTVPPPPRVVDKLSLCVAPGKACSPAASEITGLSTAVLAAHGRQCFDDNLANLLLAFLRRQPQPWCLVAHNGDRYDFPLLQAELAMLGLTSALDGAFCVDSITALKALERASSPSEHGPRKSYSLGSIYTRLYGQSPPDSHTAEGDVLALLSICQWRPQALLRWVDAHARPFGTIRPMYGVTASARTKPRPSAVTTTAHLATTRNTSPSLGESRGTKDLPPVKDPGALSREGLLAPLGLLAILTLAVATLYGLSLATPGE [TREX1] | °C | 53.5

QUERY: Quick check: melting temperature of `RAPGEF6` ?
RESULT: 47.3

QUERY: Data request, read-out melting temperature, for MEGLVVAAGGDVSLHNFSARLWEQLVHFHVMRLTDSLFLWVGATPHLRNLAVAMCSRYDSIPVSTSLLGDTSDTTSTGLAQRLARKTNKQVFVSYNLQNTDSNFALLVENRIKEEMEAFPEKF [PSMG4]
RESULT: 57.5

QUERY: Which value of melting temperature has been reported for MANEAYPCPCDIGHRLEYGGLGREVQVEHIKAYVTKSPVDAGKAVIVIQDIFGWQLPNTRYIADMISGNGYTTIVPDFFVGQEPWDPSGDWSIFPEWLKTRNAQKIDREISAILKYLKQQCHAQKIGIVGFCWGGTAVHHLMMKYSEFRAGVSVYGIVKDSEDIYNLKNPTLFIFAENDVVIPLKDVSLLTQKLKEHCKVEYQIKTFSGQTHGFVHRKREDCSPADKPYIDEARRNLIEWLNKYM [CMBL] in the records?
RESULT: 53.5

QUERY: Bench note: what melting temperature did MAACRALKAVLVDLSGTLHIEDAAVPGAQEALKRLRGASVIIRFVTNTTKESKQDLLERLRKLEFDISEDEIFTSLTAARSLLERKQVRPMLLVDDRALPDFKGIQTSDPNAVVMGLAPEHFHYQILNQAFRLLLDGAPLIAIHKARYYKRKDGLALGPGPFVTALEYATDTKATVVGKPEKTFFLEALRGTGCEPEEAVMIGDDCRDDVGGAQDVGMLGILVKTGKYRASDEEKINPPPYLTCESFPHAVDHILQHLL [HDHD2] show?
RESULT: 57.3

###

# Tested on: HeLa Kyoto
# Measurement Protocol: thermal stability score vs G1/S (z-score of summed log2 fold changes over temperatures); higher = more thermally stable than in G1/S
# Details: cell cycle stage: early G1 (4.5 h after nocodazole release)
Let's look at some sequences and their measured thermal stability score.
Format: numeric value only, no unit, no commentary.

Example results:
Biopolymer Sequence | thermal stability score
MLSSCVRPVPTTVRFVDSLICNSSRSFMDLKALLSSLNDFASLSFAESWDNVGLLVEPSPPHTVNTLFLTNDLTEEVMEEVLQKKADLILSYHPPIFRPMKRITWNTWKERLVIRALENRVGIYSPHTAYDAAPQGVNNWLAKGLGACTSRPIHPSKAPNYPTEGNHRVEFNVNYTQDLDKVMSAVKGIDGVSVTSFSARTGNEEQTRINLNCTQKALMQVVDFLSRNKQLYQKTEILSLEKPLLLHTGMGRLCTLDESVSLATMIDRIKRHLKLSHIRLALGVGRTLESQVKVVALCAGSGSSVLQGVEADLYLTGEMSHHDTLDAASQGINVILCEHSNTERGFLSDLRDMLDSHLENKINIILSETDRDPLQVV [NIF3L1] | -0.711
MLSAASRVVSRAAVHCALRSPPPEARALAMSRPPPPRVASVLGTMEMGRRMDAPASAAAVRAFLERGHTELDTAFMYSDGQSETILGGLGLGLGGGDCRVKIATKANPWDGKSLKPDSVRSQLETSLKRLQCPQVDLFYLHAPDHGTPVEETLHACQRLHQEGKFVELGLSNYASWEVAEICTLCKSNGWILPTVYQGMYNATTRQVETELFPCLRHFGLRFYAYNPLAGGLLTGKYKYEDKDGKQPVGRFFGNSWAETYRNRFWKEHHFEAIALVEKALQAAYGASAPSVTSAALRWMYHHSQLQGAHGDAVILGMSSLEQLEQNLAATEEGPLEPAVVDAFNQAWHLVAHECPNYFR [AKR7A2] | 0.491

Could you now look at the following sequence, please?
QUERY: Give the reported thermal stability score for MEGCVSNLMVCNLAYSGKLEELKESILADKSLATRTDQDSRTALHWACSAGHTEIVEFLLQLGVPVNDKDDAGWSPLHIAASAGRDEIVKALLGKGAQVNAVNQNGCTPLHYAASKNRHEIAVMLLEGGANPDAKDHYEATAMHRAAAKGNLKMIHILLYYKASTNIQDTEGNTPLHLACDEERVEEAKLLVSQGASIYIENKEEKTPLQVAKGGLGLILKRMVEG [PSMD10] (system: HeLa Kyoto).
RESULT: 0.248

###

# Test system: HeLa Kyoto
# Measurement Protocol: solubility in G1/S (NP-40 vs SDS abundance) (log2 ratio); higher = more soluble
# Details: cell cycle stage: G1/S
A collection of sequences and their measured solubility in G1/S (log2)
Hey, just send me the number, nothing else.

Biopolymer Sequence | Test Target | solubility in G1/S (log2)
MAAAAKPNNLSLVVHGPGDLRLENYPIPEPGPNEVLLRMHSVGICGSDVHYWEYGRIGNFIVKKPMVLGHEASGTVEKVGSSVKHLKPGDRVAIEPGAPRENDEFCKMGRYNLSPSIFFCATPPDDGNLCRFYKHNAAFCYKLPDNVTFEEGALIEPLSVGIHACRRGGVTLGHKVLVCGAGPIGMVTLLVAKAMGAAQVVVTDLSATRLSKAKEIGADLVLQISKESPQEIARKVEGQLGCKPEVTIECTGAEASIQAGIYATRSGGNLVLVGLGSEMTTVPLLHAAIREVDIKGVFRYCNTWPVAISMLASKSVNVKPLVTHRFPLEKALEAFETFKKGLGLKIMLKCDPSDQNP [SORD] | HeLa Kyoto | 0.184
MAATLGPLGSWQQWRRCLSARDGSRMLLLLLLLGSGQGPQQVGAGQTFEYLKREHSLSKPYQGVGTGSSSLWNLMGNAMVMTQYIRLTPDMQSKQGALWNRVPCFLRDWELQVHFKIHGQGKKNLHGDGLAIWYTKDRMQPGPVFGNMDKFVGLGVFVDTYPNEEKQQERVFPYISAMVNNGSLSYDHERDGRPTELGGCTAIVRNLHYDTFLVIRYVKRHLTIMMDIDGKHEWRDCIEVPGVRLPRGYYFGTSSITGDLSDNHDVISLKLFELTVERTPEEEKLHRDVFLPSVDNMKLPEMTAPLPPLSGLALFLIVFFSLVFSVFAIVIGIILYNKWQEQSRKRFY [LMAN2L] | HeLa Kyoto | -0.0714
MPLGLGRRKKAPPLVENEEAEPGRGGLGVGEPGPLGGGGSGGPQMGLPPPPPALRPRLVFHTQLAHGSPTGRIEGFTNVKELYGKIAEAFRLPTAEVMFCTLNTHKVDMDKLLGGQIGLEDFIFAHVKGQRKEVEVFKSEDALGLTITDNGAGYAFIKRIKEGSVIDHIHLISVGDMIEAINGQSLLGCRHYEVARLLKELPRGRTFTLKLTEPRKAFDMISQRSAGGRPGSGPQLGTGRGTLRLRSRGPATVEDLPSAFEEKAIEKVDDLLESYMGIRDTELAATMVELGKDKRNPDELAEALDERLGDFAFPDEFVFDVWGAIGDAKVGRY [GIPC1] | HeLa Kyoto | 0.314
MASVSSATFSGHGARSLLQFLRLVGQLKRVPRTGWVYRNVQRPESVSDHMYRMAVMAMVIKDDRLNKDRCVRLALVHDMAECIVGDIAPADNIPKEEKHRREEEAMKQITQLLPEDLRKELYELWEEYETQSSAEAKFVKQLDQCEMILQASEYEDLEHKPGRLQDFYDSTAGKFNHPEIVQLVSELEAERSTNIAAAASEPHS [HDDC2] | HeLa Kyoto | 0.452

Query sequence follows.
QUERY: Sample MASSGAGDPLDSKRGEAPFAQRIDPTREKLTPEQLHSMRQAELAQWQKVLPRRRTRNIVTGLGIGALVLAIYGYTFYSISQERFLDELEDEAKAARARALARASGS [COA3] — what was its solubility in G1/S (log2)?
RESULT: -0.65
